The reported numbers originate from patent US20260242478A1.

Biological target: T1, PSMA Fab (SEQ ID NOs: 19, 20)
T1 construct: also called 006 PSMA Fab; anti-PSMA Fab
Experiment: competition ELISA, peptide titrated against 0.3 nM PSMA Fab on captured biotinylated PSMA
Where no end group is shown, it is not given here.
Reported values of IC50 for individual entries
Kindly answer with a numeric value in µM, unit omitted.

Example binders with recorded IC50:
binder: QCVWDNFNYWMDCD (cysteine pairing not given here; also: biotinylated (site not given here), PSMA peptide mask (P2)) [Peptide-203]
u: µM
IC50: 36.1

binder: SKLLCVPPWMCYHV (cysteine pairing not given here; also: biotinylated (site not given here), PSMA peptide mask (P2)) [Peptide-194]
u: µM
IC50: 10.3

binder: HCKFHDYHSWYVCY (cysteine pairing not given here; also: biotinylated, site not given here, PSMA peptide mask (P2)) [Peptide-212]
u: µM
IC50: 6.39

binder: MCQWDELNYWMDCD (cysteine pairing not given here; also: biotinylated (site not given here), PSMA peptide mask (P2)) [Peptide-202]
u: µM
IC50: 11

binder: LMKWCTPRWMCAAE (cysteine pairing not given here; also: biotinylated (site not given here), PSMA peptide mask (P2)) [Peptide-179]
u: µM
IC50: 4.6

Per the records, this binder ( QCVWDLTNYWMNCD (cysteine pairing not given here; also: biotinylated (site not given here), PSMA peptide mask (P2)) [Peptide-206] ) has IC50 equal to 28.7

Given item QCTWNEKTWWMECE (cysteine pairing not given here; also: biotinylated (site not given here), PSMA peptide mask (P2)) [Peptide-204] , the value recorded as its IC50 is 9.07

Measured IC50, QLPCHYWGEWCPQA (cysteine pairing not given here; also: biotinylated (site not given here), PSMA peptide mask (P2)) [Peptide-195] : 19.3

Data point: DCHWNKATWWMDCE (cysteine pairing not given here; also: biotinylated, site not given here, PSMA peptide mask (P2)) [Peptide-207] ; IC50 = 9.86

Looking up ILPCHWYTSDCPQH (cysteine pairing not given here; also: biotinylated (site not given here), PSMA peptide mask (P2)) [Peptide-200] , I found its IC50 recorded as 12.2

GET /value?item= QCVWDRGTWWMACD (cysteine pairing not given here; also: biotinylated, site not given here, PSMA peptide mask (P2)) [Peptide-209] &field=IC50 returns 10.2

Entry MCQWDKINYWMDCD (cysteine pairing not given here; also: biotinylated (site not given here), PSMA peptide mask (P2)) [Peptide-205] ; IC50 = 5.52

Lab note: PELRCVPFWMCSFN (cysteine pairing not given here; also: biotinylated (site not given here), PSMA peptide mask (P2)) [Peptide-181] gave IC50 of 26.1

GET /value?item= LTRCVPDWMCYRAV (cysteine pairing not given here; also: biotinylated (site not given here), PSMA peptide mask (P2)) [Peptide-198] &field=IC50 returns 18.9

Entry IAVLCQPNWMCAGF (cysteine pairing not given here; also: biotinylated (site not given here), PSMA peptide mask (P2)) [Peptide-180] — recorded IC50 = 4.5
